System: Escherichia coli
Experiment: Inhibition of Escherichia coli beta-glucuronidase using para-nitrophenyl-beta-D-glucuronide as substrate at 0.2 mM incubated for 30 min prior to substrate addition measured for 30 min by spectrophotometric analysis
Activity calls are given as the source filed them. The rule behind the calls is not given here.
REPORTED_METRIC: inhibition

The following molecules have reported results that may help.
CHEMICAL_STRUCTURE | REPORTED_METRIC | TEST_VALUE
COc1cccc(CCc2n[nH]c(=O)n2-c2cccc(OC)c2)c1 | inhibition | inactive
COc1ccc(CCC(=O)NNC(=O)Nc2cccc(OC)c2)cc1 | inhibition | 59.3%
COc1cccc(NC(=O)NNC(=O)Cc2ccccc2OC)c1 | inhibition | 46.5%
COc1ccccc1Cc1n[nH]c(=O)n1-c1ccccc1OC | inhibition | inactive
COc1ccc(CCc2n[nH]c(=O)n2-c2cccc(OC)c2)cc1 | inhibition | inactive

Please report inhibition for every entry that follows.
1. COc1ccc(-n2c(CCc3ccccc3OC)n[nH]c2=O)cc1
2. COc1ccccc1CCc1n[nH]c(=O)n1-c1ccccc1OC
3. COc1cccc(CCC(=O)NNC(=O)Nc2cccc(OC)c2)c1
4. COc1cccc(-n2c(Cc3ccccc3OC)n[nH]c2=O)c1
5. COc1ccc(CCC(=O)NNC(=O)Nc2ccccc2OC)cc1
6. COc1cccc(-n2c(CCc3ccccc3OC)n[nH]c2=O)c1
7. COc1cccc(CC(=O)NNC(=O)Nc2ccccc2OC)c1

1. inactive
2. inactive
3. 52%
4. inactive
5. 83.7%
6. inactive
7. 68.3%

The origin of these recorded values is ChEMBL document CHEMBL3044616.
